This collection of values is drawn from patent US10030006B2.

- Tested on: SKBr3 (estrogen receptor negative, Her2 over-expressing breast cancer cells)
- test.summary: Anti-proliferation assay (MTS/PMS, 72 h), SKBr3
- Format: cell-based
- assay.context: Homo sapiens, SK-BR-3; Table 6, substituted phenyl ureas; Breast Cancer; read-out: IC50 SKBr3
pIC50: −log10 of the molar value.
metric: pIC50

Some entries whose results are on file:
| mol.smiles | assayed.target | pIC50 |
| --- | --- | --- |
| Cc1c(OC2CCN(C)CC2)ccc2cc(NC(=O)Nc3ccc(Cl)c(Cl)c3)c(=O)oc12 | SKBr3 (estrogen receptor negative, Her2 over-expressing breast cancer cells) | 6.19 |
| Cc1c(OC2CCN(C)CC2)ccc2cc(NC(=O)Nc3ccc(Cl)cc3)c(=O)oc12 | SKBr3 (estrogen receptor negative, Her2 over-expressing breast cancer cells) | 6.77 |

(1) Cc1c(OC2CCN(C)CC2)ccc2cc(NC(=O)Nc3cccc(C(F)(F)F)c3)c(=O)oc12
(2) Cc1c(OC2CCN(C)CC2)ccc2cc(NC(=O)Nc3ccc(C(C)(C)C)cc3)c(=O)oc12
(3) CCc1ccc(NC(=O)Nc2cc3ccc(OC4CCN(C)CC4)c(C)c3oc2=O)cc1
(4) CC(=O)Oc1cccc(NC(=O)Nc2cc3ccc(OC4CCN(C)CC4)c(C)c3oc2=O)c1
// ranking: key=pIC50, reverse=True Answer format: list of labels, ordered as asked. 1, 3, 2, 4

(P) Cc1c(OC2CCN(C)CC2)ccc2cc(NC(=O)Nc3ccc(C#N)cc3)c(=O)oc12
(Q) COc1ccc(NC(=O)Nc2cc3ccc(OC4CCN(C)CC4)c(C)c3oc2=O)cc1
Of P and Q , which one carries the higher reported pIC50? Returns: label corresponding to the selected item. P

(P) CCc1cccc(NC(=O)Nc2cc3ccc(OC4CCN(C)CC4)c(C)c3oc2=O)c1
(Q) Cc1c(OC2CCN(C)CC2)ccc2cc(NC(=O)Nc3cccc(Oc4ccccc4)c3)c(=O)oc12
Could you tell me which of these two has the smaller pIC50 figure? First: P Second: Q Returns: label corresponding to the selected item. P

###

- Tested on: MRC5
- test.summary: Anti-proliferation assay, MRC5 (normal)
- Type: cell-based
- assay.context: Table 9, non-aryl ureas
metric: pIC50
FYI, pIC50 means -log10 of a concentration in mol per litre.

| molecule | pIC50 |
| --- | --- |
| Cc1c(OC2CCN(C)CC2)ccc2cc(NC(=O)N(Cc3ccccc3)Cc3ccccc3)c(=O)oc12 [drawing 174] | 4.68 |

Let's switch to this molecule now.
For record Cc1c(OC2CCN(C)CC2)ccc2cc(NC(=O)NCc3ccccc3)c(=O)oc12 [drawing 172] the listed pIC50 is 4.68

###

- Test system: SKBr3 (estrogen receptor negative, Her2 over-expressing breast cancer cells)
- test.summary: Anti-proliferation assay (MTS/PMS, 72 h), SKBr3
- Assay type: cell-based
- assay.context: Homo sapiens, SK-BR-3; Table 6, substituted phenyl ureas; Breast Cancer; read-out: IC50 SKBr3
metric: IC50 (nM)

| molecule | IC50 / nM |
| --- | --- |
| CC(=O)Oc1ccc(NC(=O)Nc2cc3ccc(OC4CCN(C)CC4)c(C)c3oc2=O)cc1 [p-OAc] | 1480 |

(I) Cc1c(OC2CCN(C)CC2)ccc2cc(NC(=O)Nc3ccc(F)cc3)c(=O)oc12 [p-F]
(II) Cc1ccc(NC(=O)Nc2cc3ccc(OC4CCN(C)CC4)c(C)c3oc2=O)cc1C [3,4-dimethyl]
Of I and II , which one carries the higher reported IC50? Returns: label corresponding to the selected item. I
(I: 480 nM, II: 310 nM)

(a) Cc1c(OC2CCN(C)CC2)ccc2cc(NC(=O)Nc3ccc(Br)cc3)c(=O)oc12 [p-Br]
(b) Cc1c(OC2CCN(C)CC2)ccc2cc(NC(=O)Nc3ccc(-c4ccccc4)cc3)c(=O)oc12 [p-phenyl]
(c) Cc1c(OC2CCN(C)CC2)ccc2cc(NC(=O)Nc3cccc(O)c3)c(=O)oc12 [m-OH]
// ranking: key=IC50, reverse=True Answer format: list of labels, ordered as asked. c, a, b
(c: 2370 nM, a: 650 nM, b: 360 nM)

###

- Tested on: SKBr3 (estrogen receptor negative, Her2 over-expressing breast cancer cells)
- test.summary: Anti-proliferation assay (MTS/PMS, 72 h), SKBr3
- Format: cell-based
- assay.context: Homo sapiens, SK-BR-3; Table 6, substituted phenyl ureas; Breast Cancer; read-out: IC50 SKBr3
metric: IC50 (nM)

| mol.smiles | metric | quantitative.readout |
| --- | --- | --- |
| Cc1c(OC2CCN(C)CC2)ccc2cc(NC(=O)Nc3ccc(OC(F)(F)F)cc3)c(=O)oc12 | IC50 | 410 |

(A) Cc1c(OC2CCN(C)CC2)ccc2cc(NC(=O)Nc3ccc(C(F)(F)F)cc3)c(=O)oc12
(B) CC(=O)c1cccc(NC(=O)Nc2cc3ccc(OC4CCN(C)CC4)c(C)c3oc2=O)c1
Of A and B , which one carries the higher reported IC50? Returns: label corresponding to the selected item. B
